Reported inhibition at 10 µg/mL values are given for each entry in this list.
# Test system: Brassica napus
# TEST: Herbicidal activity against rape assessed as inhibition of root growth at 10 mg/L relative to control
# Type: functional
State the answer as a number, implicitly in %.

Field: example entries. Status: answers known.
                                   molecule  unit_spec  recorded_result
0  COC(=O)C(C)Oc1ccc(Oc2nc3c(c(SC)nn3-c3ccccc3)c(=O)n2C(=O)Nc2ccccc2)cc1 (configuration not stated)          %             40.2
1  COC(=O)C(C)Oc1ccc(Oc2nc3c(c(S(C)(=O)=O)nn3-c3ccccc3)c(=O)n2C(=O)Nc2ccccc2)cc1 (configuration not stated)          %               25
2  CCCOC(=O)C(C)Oc1ccc(Oc2nc3c(c(S(C)(=O)=O)nn3-c3ccccc3)c(=O)n2C(=O)Nc2ccccc2Cl)cc1 (configuration not stated)          %             17.4
3  CCOC(=O)C(C)Oc1ccc(Oc2nc3c(c(SC)nn3-c3ccccc3)c(=O)n2C(=O)Nc2cccc(C)c2)cc1 (configuration not stated)          %             46.5
4  CCOC(=O)C(C)Oc1ccc(Oc2nc3c(c(S(C)(=O)=O)nn3-c3ccccc3)c(=O)n2C(=O)Nc2cccc(C)c2)cc1 (configuration not stated)          %               51

Task: Value wanted: inhibition at 10 µg/mL (Brassica napus) of entry CCOC(=O)C(C)Oc1ccc(Oc2nc3c(c(S(=O)(=O)Cc4ccccc4)nn3-c3ccccc3)c(=O)n2C(=O)Nc2cccc(C)c2)cc1 (configuration not stated)
Result: 9.8

Task: Ok, now CCOC(=O)COc1ccc(Oc2nc3c(c(SCc4ccccc4)nn3-c3ccccc3)c(=O)n2C(=O)Nc2cccc(C)c2)cc1
Result: 20.6
